TARGET: human JAK1 kinase domain (JH1) (Homo sapiens)
Construct: recombinantly generated catalytic kinase (also known as JH1) domain of human JAK1, JAK2, JAK3 and TYK2
Sequence (P23458 875-1153 limits assumed): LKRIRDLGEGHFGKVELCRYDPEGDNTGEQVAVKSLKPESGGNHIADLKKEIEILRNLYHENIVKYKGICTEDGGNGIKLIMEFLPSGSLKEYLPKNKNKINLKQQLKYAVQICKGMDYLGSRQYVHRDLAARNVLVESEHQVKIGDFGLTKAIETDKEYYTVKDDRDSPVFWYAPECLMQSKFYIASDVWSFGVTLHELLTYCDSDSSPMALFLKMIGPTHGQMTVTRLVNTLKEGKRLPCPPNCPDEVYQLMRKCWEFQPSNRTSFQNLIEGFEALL
EXPERIMENT_DESCRIPTION: JH1 biochemical assay for JAK1 (ADP-Glo kinase assay, recombinant JH1 catalytic domain, JAK3-342 peptide, 35 μM ATP)
MEASUREMENT_PARAMETERS: JH1 kinase domain, ADP-Glo
Where a name gives a salt, the structure may show the parent alone.
Entries and their measured IC50 follow.

Q: For human JAK1 kinase domain (JH1) (Homo sapiens), give IC50 of the listed compound: `C[C@@H]1CN(c2ccnn3cc(-c4cncnc4)cc23)C(=O)[C@]1(C#N)C1CC1`
A: 1000 to 5000 nM

Q: Consider the compound C[C@@H]1CN(c2ccnn3cc(-c4ncccc4O)cc23)C(=O)[C@]1(C#N)C1CC1 [Example 149, trifluoroacetate] tested on human JAK1 kinase domain (JH1) (Homo sapiens); state its IC50.
A: 1000 to 5000 nM

Q: GET IC50 | system: human JAK1 kinase domain (JH1) (Homo sapiens) | item: C[C@@H]1CN(c2ccnn3cc(-c4cnn(C5CCOC5)c4)cc23)C(=O)[C@]1(C#N)C1CC1 (stereo partly drawn)
A: < 100 nM

Q: Recall the reported IC50 of COc1ccc(-c2cc3c(N4C[C@@H](C)[C@@](C#N)(C5CC5)C4=O)ccnn3c2)nc1 [Example 145, trifluoroacetate] on human JAK1 kinase domain (JH1) (Homo sapiens) and write it down.
A: 100 to 1000 nM

Q: Please look at `N#C[C@@]1(C2CC2)CCN(c2ccnn3cc(-c4cnn(C(F)F)c4)cc23)C1=O` and tell me its recorded IC50 on human JAK1 kinase domain (JH1) (Homo sapiens).
A: 100 to 1000 nM

Q: Provide IC50, tested on human JAK1 kinase domain (JH1) (Homo sapiens), for `Cn1cc(-c2cc3c(N4CC[C@@](C(F)F)(C5CC5)C4=O)ccnn3c2)cn1` .
A: 1000 to 5000 nM

Q: Answer with IC50 of `Cc1cc(-c2cc3c(N4CC[C@@](C#N)(C5CC5)C4=O)ccnn3c2)on1` measured for human JAK1 kinase domain (JH1) (Homo sapiens).
A: 1000 to 5000 nM

Q: Give IC50 only, for `C[C@@H]1CN(c2ccnn3cc(-c4cccc5c4cnn5C)cc23)C(=O)[C@]1(C#N)C1CC1` , using human JAK1 kinase domain (JH1) (Homo sapiens) data.
A: 100 to 1000 nM

Q: Print human JAK1 kinase domain (JH1) (Homo sapiens) IC50 for Cc1csc(-c2cc3c(N4C[C@@H](C)[C@@](C#N)(C5CC5)C4=O)ccnn3c2)n1 [Example 113, trifluoroacetate] .
A: 100 to 1000 nM

Q: Fill: IC50 (human JAK1 kinase domain (JH1) (Homo sapiens)) for this compound `C[C@H]1CN(c2ccnn3cc(-c4cnn(C)c4)cc23)C(=O)[C@]1(C#N)C1CC1`
A: 1000 to 5000 nM

Q: Please indicate recorded IC50 of C[C@@H]1CN(c2ccnn3cc(-c4ccc(CO)cn4)cc23)C(=O)[C@]1(C#N)C1CC1 [Example 150, trifluoroacetate] measured with human JAK1 kinase domain (JH1) (Homo sapiens).
A: 100 to 1000 nM

Q: Output reported IC50 of the compound `C[C@@H]1CN(c2ccnn3cc(-c4cncc(O)c4)cc23)C(=O)[C@]1(C#N)C1CC1` on human JAK1 kinase domain (JH1) (Homo sapiens).
A: 100 to 1000 nM

Q: Please report the measured IC50 for COc1cnc(-c2cc3c(N4C[C@@H](C)[C@@](C#N)(C5CC5)C4=O)ccnn3c2)cn1 [Example 132, trifluoroacetate] tested on human JAK1 kinase domain (JH1) (Homo sapiens).
A: 1000 to 5000 nM

Q: Please indicate recorded IC50 of `C[C@@H]1CN(c2nc(-c3ccnc(C#N)c3)cn3nccc23)C(=O)[C@]1(C#N)C1CC1` measured with human JAK1 kinase domain (JH1) (Homo sapiens).
A: < 100 nM

Q: Enter recorded IC50 with human JAK1 kinase domain (JH1) (Homo sapiens) for `C[C@@H]1CN(c2nc(-c3cnn(C45CC(C4)C5)c3)cn3ncc(F)c23)C(=O)[C@]1(C#N)C1CC1` here.
A: < 100 nM
